Test system: SGK-1 dependent phosphorylation of GSK3beta in U2OS cells
assayRemarks: SGK-1 dependent phosphorylation of GSK3beta in U2OS cells overexpressing recombinant SGK-1 and GSK3beta
Format: cell-based, human
recordedConditions: U2OS cells, 6 h incubation, ratio of phosphorylated GSK3beta to total GSK3beta; read-out: IC50 values for inhibition of SGK-1 dependent phosphorylation of GSK3beta in U2OS cells
resultType: IC50

• Cc1n[nH]c2nc(-c3ccc(NS(=O)(=O)c4cc5c(cc4Cl)OCCO5)cc3)ncc12 = 9100 nM
• O=S(=O)(Nc1ccc(-c2nc(N3CCNCC3)c3cn[nH]c3n2)cc1)c1cc(Cl)ccc1Cl = 810 nM
• COc1ccc(C#N)c(S(=O)(=O)Nc2ccc(-c3nc(OC4CCC(O)CC4)c4cn[nH]c4n3)cc2)c1 (stereo not shown) = 640 nM
• COc1ccc(F)c(S(=O)(=O)Nc2ccc(-c3nc(OCC(C)C)c4c(N)n[nH]c4n3)cc2)c1 = 160 nM
